- Assay Remarks: Analog solubility in TSAG3 gel vehicle (minus Carbopol)
- Assay type: physicochemical
- Condition Notes: TSAG3 gel vehicle minus 1% w/w Carbopol, 30 mg/g added, 20-23° C.
Result Type: Supernatant concentration Mean (N = 2-3) mg/g at RT after 4 days equilibration (mg/g)
Give the value in mg/g but do not write mg/g after it.

Answered examples (4):
>  <Molecule>
O=C(COc1ccc(CO)cc1)N1CC[C@H](Oc2ccccc2)C1 [Compound B]

>  <Reported>
28.46

$$$$
>  <Molecule>
O=C(COc1ccc(CO)cc1)N1CC[C@H](Oc2cccc(C(F)(F)F)c2)C1 [Compound D]

>  <Reported>
28.35

$$$$
>  <Molecule>
Cc1ccccc1O[C@H]1CCN(C(=O)COc2ccc(CO)cc2)C1 [Compound H]

>  <Reported>
27.89

$$$$
>  <Molecule>
O=C(COc1ccc(CO)cc1)N1CC[C@H](Oc2ccc(C(F)(F)F)cc2)C1 [Compound E]

>  <Reported>
23.18

$$$$

Request: Return value of Supernatant concentration Mean (N = 2-3) mg/g at RT after 4 days equilibration for input O=C(COc1ccc(CO)cc1)N1CC[C@H](Oc2ccccc2OC(F)(F)F)C1 [Compound G] , no commentary.
Response: 28.78
